molecular target: GDP-loaded KRAS G12D (Homo sapiens, UniProt P01116, G12D); assay: KRAS G12D (GDP) Biochemical Assay (TR-FRET probe displacement); settings: 0.5 nM enzyme, 2 hours at room temperature
Sequence (P01116 1-188 isoform P01116-2 G12D): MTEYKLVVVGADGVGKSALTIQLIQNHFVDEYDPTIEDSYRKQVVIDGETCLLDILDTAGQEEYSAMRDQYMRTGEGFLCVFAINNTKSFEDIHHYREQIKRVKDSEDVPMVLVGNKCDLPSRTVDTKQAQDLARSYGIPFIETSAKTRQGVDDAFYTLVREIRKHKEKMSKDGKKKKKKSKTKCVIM
Each entry below carries its recorded IC50.
Express your answer in nM, writing the number without its unit.

Examples with their reported IC50 follow.
Compound	Reported
C[C@H]1Cc2c(Cl)c(-c3ncc(F)c4sc(N)c(C#N)c34)c(F)c3nc(OC[C@@]45CCCN4C[C@H](F)C5)nc(c23)N2C[C@H]3CC[C@H](N3)[C@H]12 (atropisomer, axis not shown; (aS))	0.11
C#Cc1c(F)ccc2cc(N)nc(-c3nc4c5c(nc(OC[C@@]67CCCN6C[C@H](F)C7)nc5c3F)N3C[C@H]5CC[C@H](N5)[C@H]3CCC4)c12	0.4
Cc1cc(N)nc(-c2c(C)c3c4c(nc(OC[C@@]56CCCN5C[C@H](F)C6)nc4c2F)N2C[C@H]4CC[C@H](N4)[C@H]2CC3)c1C(F)(F)F	0.29
C=Cc1c(-c2nc(N)cc(C)c2C(F)(F)F)c(F)c2nc(OC[C@@]34CCCN3C[C@H](F)C4)nc3c2c1CC[C@@H]1[C@@H]2CC[C@H](CN31)N2	0.43

What value of IC50 on GDP-loaded KRAS G12D (Homo sapiens, UniProt P01116, G12D) does N#Cc1c(N)sc2c(F)ccc(-c3c(F)c4c5c(nc(OC[C@@]67CCCN6C[C@H](F)C7)nc5c3F)N3C[C@H]5CC[C@H](N5)[C@H]3CC4)c12 (single isomer, unassigned) [Example 60] have?
0.03
